B1: TPR 5TU (parent)
chain: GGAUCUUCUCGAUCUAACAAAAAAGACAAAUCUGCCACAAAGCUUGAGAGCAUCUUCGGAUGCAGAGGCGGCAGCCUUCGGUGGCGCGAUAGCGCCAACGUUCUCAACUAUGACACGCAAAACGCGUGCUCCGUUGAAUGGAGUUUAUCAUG

# Variants of: B1
# TEST: polymerase ribozyme fitness, log enrichment relative to wild type (log ratio); higher = more active; in vitro selection for triplet polymerase activity
Variants at the floor of the assay were thinned out.
I'd be grateful if you could share measured polymerase ribozyme fitness (log ratio) for these entries.
Give bare numbers.

Recorded polymerase ribozyme fitness (log ratio), per entry:
| MUTATION LABEL | RESULT VALUE |
| --- | --- |
| A97U G141C U146G | -2.08 |
| A73G A142C | -1.76 |
| C57U G84A A98U C129U A147U | -1.13 |
| C57A G86A U146G | -1.4 |
| A37G A52G U55A U56A C85U C103U U145A | -3.09 |
| G70A A147U | -2.67 |
| G83A C87U C123G A142G | -2.09 |
| A41C G80C | -4.11 |

Respectfully, I request polymerase ribozyme fitness (log ratio) for each entry included below.
1. A89U C123U
2. A137U

Out:
1. 0.89
2. -3.39

Below are some variants; for each one, tell me its polymerase ribozyme fitness (log ratio).
1. A49G C114U U144A
2. G62A A98U

Out:
[-4.06, -1.42]
